// provenance: the RNAGym collection of RNA variant scans (doi:10.1002/anie.201605470)

B1: Osa-1-4 twister ribozyme (parent)
chain: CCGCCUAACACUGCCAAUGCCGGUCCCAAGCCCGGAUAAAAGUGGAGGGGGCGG

# Variants of: B1
# Assay Notes: self-cleavage, relative activity (ratio to wild type); higher = more cleavage; co-transcriptional
Property Label: self-cleavage
Numbers only.

{"columns": ["Sequence Content", "Value Reported"],
 "data": [
  ["CCGCCUAACACUGCCAAUGCCGGUCCCAAGCCCGGACAAAAGUGGAGGUGGCGG [G49U U37C]", 0.18],
  ["CCGCCUAACACUGCCAAUGCCGGUCCCAAGCCCGGAUAAAAGGGGAGGGGGCGC [G54C U43G]", 0.76],
  ["CCGCCUAACACUGCCAAUGCCGGCCCCAAGCCCGGAUAAAAGUGGAGGGGGCUG [G53U U24C]", 0.06],
  ["CCGCCUAACACUCCCAAUGCCGGUCCCAAGACCGGAUAAAAGUGGAGGGGGCGG [C31A G13C]", 0.01]
]}

Give self-cleavage for each of the items listed below.
1. CCGCCUAACACUGCCAAUGCCGAUCCCAAGCCCGGAUUAAAGUGGAGGGGGCGG [A38U G23A]
2. CCGCCUAACACUGCCAAUGCCGGUCCCAAGCCCGGAUAAAUGUGCAGGGGGCGG [A41U G45C]
3. CCGCCUAACACUGCCAAUUCCGGUCCCAAGCCCGGAUAAAAGUGGAGCGGGCGG [G19U G48C]
4. CCGCCUAACACUGCCAAUGCCGGUCCCAAGCCCGGAUAAAAGGGGAGGGGGUGG [C52U U43G]

0.33
0.06
0.03
0.88
